System: Spleen cells (CD1 mouse)
procedure_details: In vitro cell proliferation assay ([3H]thymidine)
Format: cell-based
applied_conditions: at 10 μg/ml, 48 hrs
[25] = 2'-5' internucleotide linkage (phosphodiester)
Binarize Stimulation Index (Lymphocyte Proliferation) at 3; below is y, at or above is n.

{"columns": ["substance", "assigned_label"],
 "data": [
  ["SEQ ID NO 8: Control phosphorothioate oligonucleotide containing all 3'-5' linkages (CTCTCGCACCCATCTCTCTCCTTCT; all phosphorothioate, sugars by position and methylation of C not given here) [reference compound]", "n"],
  ["SEQ ID NO 3: Phosphorothioate analog of SEQ ID NO 1 (antisense CUCTCGCACCCATCTCTCTCCUUCT; phosphorothioate, chemistry not fully specified)", "n"],
  ["SEQ ID NO 6: Phosphorothioate analog of SEQ ID NO 4, with nine 2'-5' linkages (antisense CUCTCGCACCCAUCTCTCTCCUUCT; all linkages phosphorothioate, nine 2'-5' linkages, further chemistry not given here)", "y"],
  ["SEQ ID NO 2: MBO with three 2'-5'-linkages at each end; 2'-5'-phosphodiester and 3'-5'-phosphorothioate linkages (antisense CUCTCGCACCCATCTCTCTCCUUCT; linkages [25]3 s18 [25]3 (s phosphorothioate, o phosphodiester), sugars by position and methylation of C not given here)", "y"],
  ["SEQ ID NO 5: MBO with nine 2'-5'-linkages; 2'-5'-phosphodiester and 3'-5'-phosphorothioate linkages (antisense CUCTCGCACCCAUCTCTCTCCUUCT; nine 2'-5' phosphodiester linkages, other linkages 3'-5' phosphorothioate, further chemistry not given here)", "y"],
  ["SEQ ID NO 1: Phosphodiester MBO with three 2'-5'-linkages at each of the 5'- and 3'-ends, complementary to HIV-1 gag mRNA (antisense CUCTCGCACCCATCTCTCTCCUUCT; linkages [25]3 o18 [25]3 (s phosphorothioate, o phosphodiester), sugars by position and methylation of C not given here)", "y"],
  ["SEQ ID NO 7: Control phosphodiester oligonucleotide containing all 3'-5' linkages (CTCTCGCACCCATCTCTCTCCTTCT; all phosphodiester, sugars by position and methylation of C not given here) [reference compound]", "y"]
]}

----------
Tested on: DNA target strand SEQ ID NO 10 (25 base sequence from the initiation codon region of the HIV-1 gag mRNA)
procedure_details: Thermal melting study, duplex with DNA target strand
Format: binding
applied_conditions: duplex with DNA SEQ ID NO 10; 10 mM disodium hydrogen phosphate pH 7.5, 100 mM NaCl; 2.0 μM total strands
endpoint_name: Tm DNA (°C)

{"columns": ["substance", "units", "measured_value"],
 "data": [
  ["SEQ ID NO 4: Phosphodiester MBO with three 2'-5' linkages at each end and an additional three in the middle (antisense CUCTCGCACCCAUCTCTCTCCUUCT; phosphodiester, three 2'-5' linkages at each end and three in middle, further chemistry not given here)", "°C", 52.8],
  ["SEQ ID NO 8: Control phosphorothioate oligonucleotide containing all 3'-5' linkages (CTCTCGCACCCATCTCTCTCCTTCT; all phosphorothioate, sugars by position and methylation of C not given here) [reference compound]", "°C", 56.6]
]}

----------
System: citrated normal human donor plasma
procedure_details: Clotting assay, activated partial thromboplastin time (aPTT)
applied_conditions: human plasma, compared to saline control
[25] = 2'-5' internucleotide linkage (phosphodiester)

{"columns": ["substance", "target", "50% Prolongation of Clotting (aPTT)"],
 "data": [
  ["SEQ ID NO 1: Phosphodiester MBO with three 2'-5'-linkages at each of the 5'- and 3'-ends, complementary to HIV-1 gag mRNA (antisense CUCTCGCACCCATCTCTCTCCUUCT; linkages [25]3 o18 [25]3 (s phosphorothioate, o phosphodiester), sugars by position and methylation of C not given here)", "citrated normal human donor plasma", "> 100.0 µg/mL"],
  ["SEQ ID NO 7: Control phosphodiester oligonucleotide containing all 3'-5' linkages (CTCTCGCACCCATCTCTCTCCTTCT; all phosphodiester, sugars by position and methylation of C not given here) [reference compound]", "citrated normal human donor plasma", "> 100.0 µg/mL"],
  ["SEQ ID NO 4: Phosphodiester MBO with three 2'-5' linkages at each end and an additional three in the middle (antisense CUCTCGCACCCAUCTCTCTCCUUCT; phosphodiester, three 2'-5' linkages at each end and three in middle, further chemistry not given here)", "citrated normal human donor plasma", "> 100.0 µg/mL"]
]}
